- System: NCI-H1876 complex spheroid viability
- Test: Anticancer human tumor NCI-H1876 cell line growth inhibition [LSD1];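 note: spheroids exposed to compounds for one week before readout; 100% = DMSO vehicle-treated spheroids so lower means fewer viable cells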
- Measurement Conditions: second compound 0.1 µM; first compound 0.000949 µM; active compounds read low
Kindly supply the reported viability, T/C values for the records listed here.
Numbers only, in %.

Study these solved cases before continuing.
Compound	Unit String	Quantitative Result
Nc1ccn(C2OC(CO)C(O)C2(F)F)c(=O)n1 (stereo unspecified) + NC1CCC(NC2CC2c2ccccc2)CC1	%	111
Nc1ccn(C2OC(CO)C(O)C2(F)F)c(=O)n1 (stereo unspecified) + NC1CC1c1ccc(-c2cccc(O)c2)cc1	%	104
CCc1c2c(nc3ccc(O)cc13)-c1cc3c(c(=O)n1C2)COC(=O)[C@]3(O)CC + NC1CC1c1ccc(-c2cccc(O)c2)cc1	%	5.07

Hello, I would appreciate it if you could give viability, T/C for each entry below.
1. Nc1ncn(C2CC(O)C(CO)S2)c(=O)n1 (stereo unspecified) + NC1CC1c1ccc(-c2cccc(O)c2)cc1
2. CCc1c2c(nc3ccc(O)cc13)-c1cc3c(c(=O)n1C2)COC(=O)[C@]3(O)CC + NC1CCC(NC2CC2c2ccccc2)CC1

output:
115
8.41

input: Please give the measured viability, T/C for this compound: Nc1ncn(C2CC(O)C(CO)S2)c(=O)n1 (stereo unspecified) + NC1CCC(NC2CC2c2ccccc2)CC1
output: 106

----------
- Test system: NCI-H1876 complex spheroid viability
- Test: Anticancer human tumor NCI-H1876 cell line growth inhibition [LSD1];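 note: spheroids exposed to compounds for one week before readout; 100% = DMSO vehicle-treated spheroids so lower means fewer viable cells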
- Measurement Conditions: second compound 10 µM; first compound 10 µM; active compounds read low
Endpoint Name: viability, T/C (%)
Answers are plain numbers, in %.

Compound	viability, T/C / %
O=C(c1cc(Cc2n[nH]c(=O)c3ccccc23)ccc1F)N1CCN(C(=O)C2CC2)CC1 + NC1CCC(NC2CC2c2ccccc2)CC1	29.9
COc1ccc([C@@H](O)c2cc(-c3ncnc4cc(N5CCOCC5)ccc34)c(F)cc2Cl)nn1 + NC1CC1c1ccc(-c2cccc(O)c2)cc1	2.16
COc1ccc([C@@H](O)c2cc(-c3ncnc4cc(N5CCOCC5)ccc34)c(F)cc2Cl)nn1 + NC1CCC(NC2CC2c2ccccc2)CC1	26

Hey, can you go through the list below and give me viability, T/C for every item?
1. CC(C)c1c(-c2ccccc2)nc2c(C#N)c[nH]n2c1=O + NC1CC1c1ccc(-c2cccc(O)c2)cc1
2. CC1(C)CCC(CN2CCN(c3ccc(C(=O)NS(=O)(=O)c4ccc(NCC5CCOCC5)c([N+](=O)[O-])c4)c(Oc4cnc5[nH]ccc5c4)c3)CC2)=C(c2ccc(Cl)cc2)C1 + NC1CCC(NC2CC2c2ccccc2)CC1
3. O=C(c1cc(Cc2n[nH]c(=O)c3ccccc23)ccc1F)N1CCN(C(=O)C2CC2)CC1 + NC1CC1c1ccc(-c2cccc(O)c2)cc1

output:
1. 9.44
2. 8
3. 38.6

input: # query: viability, T/C of entry CC(C)c1c(-c2ccccc2)nc2c(C#N)c[nH]n2c1=O + NC1CCC(NC2CC2c2ccccc2)CC1
output: 21.3

----------
- Test system: NCI-H1876 complex spheroid viability
- Test: Anticancer human tumor NCI-H1876 cell line growth inhibition [LSD1];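 note: spheroids exposed to compounds for one week before readout; 100% = DMSO vehicle-treated spheroids so lower means fewer viable cells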
- Measurement Conditions: second compound 10 µM; first compound 0.316 µM; active compounds read low
Endpoint Name: viability, T/C (%)
One number for each entry, in %.

Worked cases, viability, T/C given:
Compound	Unit String	viability, T/C
CC(C)c1c(-c2ccccc2)nc2c(C#N)c[nH]n2c1=O + NC1CCC(NC2CC2c2ccccc2)CC1	%	92.6
O=C(c1cc(Cc2n[nH]c(=O)c3ccccc23)ccc1F)N1CCN(C(=O)C2CC2)CC1 + NC1CCC(NC2CC2c2ccccc2)CC1	%	85.9
O=C(C=Cn1cnc(-c2cc(C(F)(F)F)cc(C(F)(F)F)c2)n1)NNc1cnccn1 + NC1CC1c1ccc(-c2cccc(O)c2)cc1	%	22.8
CC1COCCN1c1cc(C2(S(C)(=N)=O)CC2)nc(-c2ccnc3[nH]ccc23)n1 (centres undefined) + NC1CC1c1ccc(-c2cccc(O)c2)cc1	%	114
COc1ccc([C@@H](O)c2cc(-c3ncnc4cc(N5CCOCC5)ccc34)c(F)cc2Cl)nn1 + NC1CC1c1ccc(-c2cccc(O)c2)cc1	%	58.6
CC(C)c1c(-c2ccccc2)nc2c(C#N)c[nH]n2c1=O + NC1CC1c1ccc(-c2cccc(O)c2)cc1	%	91.2
Nc1ncn(C2CC(O)C(CO)O2)c(=O)n1 (centres undefined) + NC1CCC(NC2CC2c2ccccc2)CC1	%	92.8
CC1COCCN1c1cc(C2(S(C)(=N)=O)CC2)nc(-c2ccnc3[nH]ccc23)n1 (centres undefined) + NC1CCC(NC2CC2c2ccccc2)CC1	%	113

Give viability, T/C for each listed item.
1. O=C(C=Cn1cnc(-c2cc(C(F)(F)F)cc(C(F)(F)F)c2)n1)NNc1cnccn1 + NC1CCC(NC2CC2c2ccccc2)CC1
2. COc1ccc([C@@H](O)c2cc(-c3ncnc4cc(N5CCOCC5)ccc34)c(F)cc2Cl)nn1 + NC1CCC(NC2CC2c2ccccc2)CC1
3. O=C(c1cc(Cc2n[nH]c(=O)c3ccccc23)ccc1F)N1CCN(C(=O)C2CC2)CC1 + NC1CC1c1ccc(-c2cccc(O)c2)cc1
4. CC1COCCN1c1cc(-c2ccnn2C)c2ccnc(-c3ccn[nH]3)c2n1 (centres undefined) + NC1CC1c1ccc(-c2cccc(O)c2)cc1
5. CC1(C)CCC(CN2CCN(c3ccc(C(=O)NS(=O)(=O)c4ccc(NCC5CCOCC5)c([N+](=O)[O-])c4)c(Oc4cnc5[nH]ccc5c4)c3)CC2)=C(c2ccc(Cl)cc2)C1 + NC1CCC(NC2CC2c2ccccc2)CC1

output:
1. 19.3
2. 94.2
3. 93.2
4. 4.75
5. 87.2

input: Item: COc1cc(Nc2ncc3c(n2)-c2ccc(Cl)cc2C(c2c(F)cccc2OC)=NC3)ccc1C(=O)O + NC1CC1c1ccc(-c2cccc(O)c2)cc1 Test system: NCI-H1876 complex spheroid viability Read-out: viability, T/C Value: ?
output: 31.1
